For each record, write down the corresponding normalized growth.
- procedure details: chemical genetic growth profiling, strain panel (AID 1159580);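 note: tested at 20 µM; growth read once vehicle control cultures reached saturation at 30 °C; 1 = growth at the plate median or of vehicle wells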
- run conditions: S. cerevisiae deletion strains, growth OD, locus YGL240W, strain doc1, stronger effect = lower value
Among all 5,500 compounds or so, about 2,000 (36%) were called active. Not shown: some 18% with an inconclusive outcome. The list shows a part of the results.
One number for each entry.

Solved entries (count: 5):
{"molecule": "C=C1C(N)CC2CC1C2(C)C (stereo unspecified)", "reported result": 0.994}
{"molecule": "CN(C)CCC=C1c2ccccc2CCc2ccccc21", "reported result": 0.999}
{"molecule": "CN(C)CCC=C1c2ccccc2C=Cc2ccccc21", "reported result": 1.02}
{"molecule": "CC(=O)O[C@H]1C[C@@]2(C)[C@H](c3ccoc3)OC(=O)[C@H]3O[C@]32[C@@]2(C)C1[C@]1(C)C(C[C@H]2OC(C)=O)C(C)(C)[C@H](OC(C)=O)C[C@@H]1OC(C)=O (stereo partly specified)", "reported result": 0.978}
{"molecule": "CC(=O)N(O)CCCCCNC(=O)CCC(=O)N(O)CCCCCNC(=O)CCC(=O)N(O)CCCCCN", "reported result": 1.01}

Documented normalized growth of "CNCCC=C1c2ccccc2CCc2ccccc21" : 1.01

###

- procedure details: chemical genetic growth profiling, strain panel (AID 1159580)
- run conditions: S. cerevisiae deletion strains, growth OD, locus YLR058C, strain SHM2 (second series), stronger effect = lower value
Among all 5,500 compounds or so, about 2,000 (36%) were called active. About 18% were inconclusive and are not listed. The list shows a part of the results.
Task for the reader: assign each of the following compounds its reported normalized growth.
Give bare numbers.

Solved cases below.
{"structure as smiles": "CSc1nc(N)nc(C(C)(C)C)n1", "normalized growth": 1.02}
{"structure as smiles": "CC(C)(C)C(=O)N1CCN(c2ncccc2C(F)(F)F)CC1", "normalized growth": 0.989}
{"structure as smiles": "c1ccc(Sc2c(-c3ccccc3)nc3ccccn23)cc1", "normalized growth": 0.899}

Parameters: items (list). Returns: normalized growth for each item.
1. Cc1ccc(OCC(=O)NN)c2c1CCC2
2. O=C(N/N=C\c1ccccc1Cl)N/N=C\c1ccccc1Cl
3. CCCCCn1c(Sc2ncc([N+](=O)[O-])s2)n[nH]c1=O

A:
1: 1.01; 2: 1; 3: 0.675

Working through the 5 compounds below one at a time, give normalized growth for each.
1. Cc1cc(C(F)(F)F)c(C#N)c(=O)[nH]1
2. O=C(O)c1coc2ccccc2c1=O
3. Clc1cccc(-c2csc(Nc3cccnc3)n2)c1
4. CCOC(=O)CSc1nnc(-c2cc(C(C)(C)C)nn2Cc2cccc(C)c2)n1C1CCCCC1
5. Cc1cc(Br)c(OCC(=O)NN)c2c1CCC2

A:
1. 1
2. 0.995
3. 0.99
4. 0.99
5. 0.999

###

- procedure details: chemical genetic growth profiling, strain panel (AID 1159580);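 note: tested at 20 µM; growth read once vehicle control cultures reached saturation at 30 °C; 1 = growth at the plate median or of vehicle wells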
- run conditions: S. cerevisiae deletion strains, growth OD, locus YMR058W, strain fet3
Out of some 5,500 compounds screened, about 2,000 (36%) were called active. Inconclusive results (about 18%) are left out. Rule as the data show it: active = normalized growth mostly below about 0.91 (no sharp cut-off); inconclusive = no clear call, values can overlap the other calls; inactive = mostly above about 0.92. This is one part of the list.
Response enum: active, inactive

{"molecule": "CN(C)CC/C=C1/c2ccccc2COc2ccccc21", "class assignment": "inactive"}
{"molecule": "O=c1c(-c2cc(O)c(O)c(O)c2)coc2cc(O)c(O)c(O)c12", "class assignment": "active"}
{"molecule": "CC(=O)[C@H]1CCC2C3CC=C4C[C@@H](O)CC[C@]4(C)C3CC[C@@]21C (some centres undefined)", "class assignment": "inactive"}
{"molecule": "Cn1nnnc1SCC1=C(C(=O)O)N2C(=O)C(NC(=O)C(O)c3ccccc3)C2SC1 (centres undefined)", "class assignment": "inactive"}
{"molecule": "NC(=O)CC[C@@H](N)C(=O)O", "class assignment": "inactive"}
{"molecule": "CNCCC=C1c2ccccc2CCc2ccccc21", "class assignment": "inactive"}
{"molecule": "NCCc1ccc(O)c(O)c1", "class assignment": "inactive"}
{"molecule": "O=c1cc(-c2cccc(O)c2)oc2ccc(O)cc12", "class assignment": "inactive"}

Q: Outcome? "CC(=O)Oc1c(-c2ccccc2)oc2c(CC=C(C)C)c3c(c(OC(C)=O)c2c1=O)C=CC(C)(C)O3"
A: inactive

Q: Recorded test call requested for "O=c1cc(-c2ccc(O)cc2)oc2ccc(O)cc12"
A: inactive

Q: Hey, what did the test say about "N[C@@H]1CONC1=O" ?
A: inactive

Q: So what was the verdict on FC(F)(F)C(Cl)Br (centres undefined) in this test?
A: inactive

Q: Which outcome was assigned to "CCCCCCCCCCCCCCCC[n+]1ccccc1" in this test?
A: active

Q: For CC(C(=O)O)[C@H]1CCC2C3CC=C4C[C@@H](O)CC[C@]4(C)C3CC[C@@]21C (some centres undefined) , what call appears in the results of this test?
A: inactive

Q: Which outcome was entered for the molecule "CCN1CCN(c2cc3c(cc2F)c(=O)c(C(=O)O)cn3C2CC2)CC1" in this test?
A: inactive

Q: Per the assay record, what outcome was assigned to "O=c1c2ccccc2[se]n1-c1ccccc1" ?
A: active

Q: What was the test verdict on CC(=O)[C@H]1CCC2C3CC=C4C[C@@H](OC(=O)CCC(=O)O)CC[C@]4(C)C3CC[C@@]21C (some centres undefined) ?
A: inactive

Q: Per the assay record, what outcome was assigned to "Cn1c(=O)c2[nH]c(C3CCCC3)nc2n(C)c1=O" ?
A: inactive

Q: Kindly provide the recorded test outcome for the following molecule: "COc1c(O)cc2c(-c3ccccc3)cc(=O)oc2c1OC"
A: inactive

Q: // outcome(item) with item = CC(C)(C)C(=O)C(Oc1ccc(Cl)cc1)n1cncn1 (centres undefined)
A: active

Q: Outcome logged for "CC(=O)N(O)CCCCCNC(=O)CCC(=O)N(O)CCCCCNC(=O)CCC(=O)N(O)CCCCCN" in this assay:
A: inactive

Q: Dear colleague, could you share the recorded outcome for CCC(/C=C/[C@@H](C)[C@H]1CCC2C3CC=C4C[C@@H](O)CC[C@]4(C)C3CC[C@@]21C)C(C)C (some centres undefined) when you have a moment?
A: inactive

Q: What outcome does the record of this test show for OC1C(O)C(O)C(O)C(O)C1O (centres undefined) ?
A: inactive

###

- procedure details: chemical genetic growth profiling, strain panel (AID 1159580);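 note: tested at 20 µM; growth read once vehicle control cultures reached saturation at 30 °C; 1 = growth at the plate median or of vehicle wells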
- run conditions: S. cerevisiae deletion strains, growth OD, locus YLR058C, strain SHM2, stronger effect = lower value
About 2,000 (36%) of roughly 5,500 compounds were called active. Inconclusive results (about 18%) are left out. The list shows a part of the results.
Decision: normalized growth beneath 1 gives 1; normalized growth meeting or exceeding 1 gives -1.

{"compound": "COC(=O)C1=C(C)NC(C)=C(C(=O)OCCN(C)Cc2ccccc2)C1c1cccc([N+](=O)[O-])c1 (stereo unspecified)", "class assignment": 1}

Q: Lab note: confirm whether the reported normalized growth for this compound is below 1, equality not counting. compound: "O=C(/C=C/c1ccccc1)c1ccc(O)cc1"
A: 1

Q: Answer whether the compound "O=c1c(-c2ccc(O)cc2)coc2cc(O)cc(O)c12" has normalized growth strictly less than 1
A: -1

Q: Determine whether this compound shows normalized growth lower than 1 (ties excluded): "O=c1c(-c2ccccc2)coc2cc(O)cc(O)c12"
A: 1

###

- procedure details: chemical genetic growth profiling, strain panel (AID 1159580);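 note: tested at 20 µM; growth read once vehicle control cultures reached saturation at 30 °C; 1 = growth at the plate median or of vehicle wells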
- run conditions: S. cerevisiae deletion strains, growth OD, locus YNL322C, strain KRE1, stronger effect = lower value
Hit rate of the full screen: of about 5,500 compounds, about 2,000 (36%) were called active. Roughly 18% stayed inconclusive and do not appear here. This is one part of the list.
quantity kind: normalized growth
Answers are plain numbers.

Observe how each entry below is paired with its result.
{"compound": "CC(=O)Nc1cccc(O)c1", "normalized growth": 1}
{"compound": "COc1cc2cc[n+]3cc4c(OC)c(OC)ccc4cc3c2cc1OC", "normalized growth": 0.98}

Value sought for every listed compound: normalized growth.
1. Cc1onc(-c2c(Cl)cccc2Cl)c1C(=O)N1CCN(c2ncccc2C(F)(F)F)CC1
2. O=c1[nH]c2cc([N+](=O)[O-])c([N+](=O)[O-])cc2[nH]c1=O
3. C=CCn1c(Sc2ncc([N+](=O)[O-])s2)n[nH]c1=O
4. CC(=O)Oc1cc(OC(C)=O)c2c(=O)c(-c3ccccc3)coc2c1

A:
1. 0.994
2. 0.986
3. 0.996
4. 1.01

List the reported normalized growth of each compound below.
1. COC(=O)C1=C(C)NC(C)=C(C(=O)OCCN(C)Cc2ccccc2)C1c1cccc([N+](=O)[O-])c1 (stereo not given)
2. O=C(O)c1nc2cc(Cl)c(Cl)cc2[nH]c1=O
3. CC1(C)O[C@@H]2CC3C4CCC5=CC(=O)C=C[C@]5(C)[C@@]4(F)[C@@H](O)C[C@]3(C)[C@]2(C(=O)CO)O1 (stereo not given in full)
4. O=c1[nH]c2cc(Cl)c(Cl)cc2[nH]c1=O

A:
0.995
0.998
1.01
1
